The reported numbers originate from ChEMBL document CHEMBL1140543.

# tested_system: Integrin alpha-V/beta-3 (Homo sapiens, UniProt P05106+P06756)
# Sequence (P05106 27-788 limits assumed): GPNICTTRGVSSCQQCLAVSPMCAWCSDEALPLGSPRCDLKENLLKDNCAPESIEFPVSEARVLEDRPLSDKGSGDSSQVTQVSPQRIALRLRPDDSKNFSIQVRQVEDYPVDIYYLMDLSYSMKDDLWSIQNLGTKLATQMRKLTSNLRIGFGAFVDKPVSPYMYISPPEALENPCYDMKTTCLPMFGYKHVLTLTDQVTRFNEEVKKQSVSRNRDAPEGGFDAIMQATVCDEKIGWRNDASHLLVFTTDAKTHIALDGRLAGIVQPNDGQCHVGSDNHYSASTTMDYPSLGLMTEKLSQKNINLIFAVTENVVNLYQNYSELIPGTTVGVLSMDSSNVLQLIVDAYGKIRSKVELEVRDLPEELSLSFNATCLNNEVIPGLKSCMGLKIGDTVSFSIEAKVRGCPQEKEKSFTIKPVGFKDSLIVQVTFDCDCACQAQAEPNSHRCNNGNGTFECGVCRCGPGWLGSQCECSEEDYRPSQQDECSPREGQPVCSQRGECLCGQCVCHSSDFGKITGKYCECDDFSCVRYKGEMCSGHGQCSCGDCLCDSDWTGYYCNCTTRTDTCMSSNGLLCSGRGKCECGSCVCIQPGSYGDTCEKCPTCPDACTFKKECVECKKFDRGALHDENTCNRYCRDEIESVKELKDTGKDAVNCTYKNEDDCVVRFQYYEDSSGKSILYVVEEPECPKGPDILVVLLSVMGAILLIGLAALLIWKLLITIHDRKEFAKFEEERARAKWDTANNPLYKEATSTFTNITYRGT
# Sequence (P06756 31-889 limits assumed): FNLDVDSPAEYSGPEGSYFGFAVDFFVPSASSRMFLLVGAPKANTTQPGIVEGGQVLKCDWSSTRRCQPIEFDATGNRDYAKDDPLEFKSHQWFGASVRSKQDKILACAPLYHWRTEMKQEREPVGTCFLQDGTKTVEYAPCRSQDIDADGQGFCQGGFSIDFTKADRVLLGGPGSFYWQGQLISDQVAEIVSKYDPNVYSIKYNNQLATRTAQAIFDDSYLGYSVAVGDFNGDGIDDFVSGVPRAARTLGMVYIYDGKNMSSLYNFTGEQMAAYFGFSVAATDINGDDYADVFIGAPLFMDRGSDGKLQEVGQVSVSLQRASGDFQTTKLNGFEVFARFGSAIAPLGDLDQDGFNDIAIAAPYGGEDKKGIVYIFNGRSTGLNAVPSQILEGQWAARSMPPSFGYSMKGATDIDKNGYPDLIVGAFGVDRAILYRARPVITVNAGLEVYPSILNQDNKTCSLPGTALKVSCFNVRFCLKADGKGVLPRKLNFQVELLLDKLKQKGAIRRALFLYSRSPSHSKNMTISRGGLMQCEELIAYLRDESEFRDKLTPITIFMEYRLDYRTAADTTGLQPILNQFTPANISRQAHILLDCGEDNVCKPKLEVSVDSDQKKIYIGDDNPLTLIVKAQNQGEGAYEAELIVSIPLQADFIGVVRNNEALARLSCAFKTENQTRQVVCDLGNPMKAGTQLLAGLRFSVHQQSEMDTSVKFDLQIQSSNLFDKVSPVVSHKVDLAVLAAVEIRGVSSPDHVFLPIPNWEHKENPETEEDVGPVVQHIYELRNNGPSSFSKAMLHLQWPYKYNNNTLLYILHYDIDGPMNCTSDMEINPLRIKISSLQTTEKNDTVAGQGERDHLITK
# Sequence (P06756 891-1048 limits assumed): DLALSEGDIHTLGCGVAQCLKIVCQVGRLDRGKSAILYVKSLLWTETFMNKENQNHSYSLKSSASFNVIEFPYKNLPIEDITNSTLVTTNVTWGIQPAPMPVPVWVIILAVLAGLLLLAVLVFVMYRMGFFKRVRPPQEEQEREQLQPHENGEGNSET
# procedure_details: Binding affinity to integrin alpha-v-beta-3 receptor
pKi: −log10 of the molar value.
Note to self: values exactly at 9 are 1 (yes). So pKi at or above 9 is 1 (yes), below is 0 (no).

Example cases with answers are listed next.
Query: Given the entry Cc1cc(C)c(S(=O)(=O)N[C@@H](Cc2ccc(-c3cccc(Nc4c(NCc5ccccc5)c(=O)c4=O)c3)cc2)C(=O)O)c(C)c1 , answer whether its pKi meets or surpasses 9.
Result: 0 (no)

Query: Given the entry Cc1cc(C)c(S(=O)(=O)N[C@@H](Cc2ccc(-c3cccc(NC(=O)c4ccccn4)c3)cc2)C(=O)O)c(C)c1 , answer whether its pKi meets or surpasses 9.
Result: 0 (no)

Query: Entry Cc1cc(C)c(S(=O)(=O)N[C@@H](Cc2ccc(-c3cccc(Nc4c(NC5CC5)c(=O)c4=O)c3)cc2)C(=O)O)c(C)c1 : is its pKi no less than 9?
Result: 1 (yes)

Query: Does pKi meet or surpass 9 for Cc1cc(C)c(S(=O)(=O)N[C@@H](Cc2ccc(-c3cccc(NC(=O)c4ccco4)c3)cc2)C(=O)O)c(C)c1 ?
Result: 0 (no)

Continue with the molecule presented below.
Query: Answer whether pKi of CS(=O)(=O)N[C@@H](Cc1ccc(-c2cccc(Nc3c(NC4CC4)c(=O)c3=O)c2)cc1)C(=O)O is greater than or equal to 9.
Result: 0 (no)

###

# tested_system: Integrin alpha-V/beta-3 (Homo sapiens, UniProt P05106+P06756)
# procedure_details: Binding affinity to integrin alpha-v-beta-3 receptor
quantity_name: pKi
Give bare numbers, as −log10 of the molar value.

See these solved cases before continuing.
Query: Query (molecule): Cc1cc(C)c(S(=O)(=O)N[C@@H](Cc2ccc(-c3cccc(Nc4c(NCc5ccccn5)c(=O)c4=O)c3)cc2)C(=O)O)c(C)c1 ; field requested: pKi
Result: 7.96

Query: Quick one: pKi of CC1(C)C2CC[C@]1(S(=O)(=O)N[C@@H](Cc1ccc(-c3cccc(Nc4c(NC5CC5)c(=O)c4=O)c3)cc1)C(=O)O)C(=O)C2 ?
Result: 10.00

Query: Query (molecule): Cc1cc(C)c(S(=O)(=O)N[C@@H](Cc2ccc(-c3cccc(Nc4n[s+]([O-])nc4NC4CC4)c3)cc2)C(=O)O)c(C)c1 (stereo partly specified) ; field requested: pKi
Result: 7.74

Query: Look up pKi for this molecule: Cc1cc(C)c(S(=O)(=O)N[C@@H](Cc2ccc(-c3cccc(NC(=O)c4ccc[nH]4)c3)cc2)C(=O)O)c(C)c1
Result: 7.48

Query: If you can, please state the reported pKi value of Cc1cc(C)c(S(=O)(=O)N[C@@H](Cc2ccc(-c3cccc(NC(=O)c4cccnc4)c3)cc2)C(=O)O)c(C)c1 .
Result: 6.40

---
Query: Give the measured pKi of Cc1cc(C)c(S(=O)(=O)N[C@@H](Cc2ccc(-c3cccc(NC(=O)c4ccncc4)c3)cc2)C(=O)O)c(C)c1 .
Result: 6.15
